This collection of values is drawn from patent US9029377B2.

pIC50: −log10 of the molar value.
Reported pIC50, UniProtKB P25105.
Measured Quantity: pIC50

Example cases with answers are listed next.
Compound	pIC50
CCc1cc(-c2ccnnc2)cc(S(=O)(=O)N[C@H]2CCC[C@@H](n3cnnc3)C2)c1 [Compound 3Baz]	6.68
O=S(=O)(N[C@H]1CCC[C@@H](n2cnnc2)C1)c1cc(F)cc(F)c1 [Compound 2Ma]	5.54
Cc1nncn1[C@H]1C[C@@H](NS(=O)(=O)c2ccc(OCCCCF)c(F)c2)CC(F)(F)C1 [Compound 2Hi]	8.17
CCc1cc(-c2ccc(OCC(F)(F)F)nc2)ccc1S(=O)(=O)N[C@@H]1C[C@H](n2cnnc2)CC(F)(F)C1 [Compound 2Cak]	8.51
CCc1cc(-c2ccc(C(F)(F)F)cc2C(F)(F)F)ccc1S(=O)(=O)N[C@H]1CCC[C@@H](n2cnnc2)C1 [Compound 2Abm]	7.08

a: O=S(=O)(N[C@@H]1C[C@H](n2cnnc2)CC(F)(F)C1)c1cc(-c2cccc3cccnc23)cc(C(F)(F)F)c1 [Compound 3Cd]
b: CCc1cc(-c2ccc(OCC(F)(F)F)nc2)ccc1S(=O)(=O)N[C@H]1CCC[C@@H](n2cnnc2C)C1 [Compound 2Abe]
c: O=S(=O)(N[C@H]1CCC[C@@H](n2cnnc2)C1)c1cc(-c2cccc3ccccc23)cc(C(F)(F)F)c1 [Compound 3Ao]
d: O=S(=O)(N[C@H]1CCC[C@@H](n2cnnc2)C1)c1ccc(OC(F)(F)F)cc1 [Compound 2Mu]
Ask: Rank the 4 compounds: largest pIC50 first, smallest last. Record the ranking as a list of labels in the requested order.
Reply: b, a, c, d

----------
Reported IC50, PAFR (Homo sapiens).
Measured Quantity: IC50 (nM)

Example cases with answers are listed next.
Compound	Value
CCc1cc(-c2ncns2)ccc1S(=O)(=O)N[C@H]1CCC[C@@H](n2cnnc2)C1 [Compound 2Aaz]	390
CCc1cc(-n2cnnn2)ccc1S(=O)(=O)N[C@H]1CCC[C@@H](n2cnnc2)C1 [Compound 5a]	815
CCc1cc(-n2cnnc2C)ccc1S(=O)(=O)N[C@H]1CCC[C@@H](n2cnnc2)C1 [Compound 4b]	9800

1: CC(C)Oc1ccc(-c2ccc(S(=O)(=O)N[C@H]3CCC[C@@H](n4cnnc4)C3)cc2F)cc1 [Compound 2Ed]
2: Cc1nncn1[C@H]1C[C@@H](NS(=O)(=O)c2ccc(-c3noc(C4CC4)n3)cc2C2CC2)CC(F)(F)C1 [Compound 2Lj]
Ask: Looking at recorded values for IC50, does 1 or 2 come in lower? # reply format: chosen label
Reply: 2

A: CCc1cc(-c2cnc3ccnn3c2)ccc1S(=O)(=O)N[C@H]1CCC[C@@H](n2cnnc2)C1 [Compound 2Aau]
B: CCc1cc(-n2cc(C)cn2)ccc1S(=O)(=O)N[C@H]1CCC[C@@H](n2cnnc2)C1 [Compound 6b]
Ask: Which has the higher IC50, A or B ? # reply format: chosen label
Reply: A
(A: 244 nM, B: 25 nM)

----------
pIC50: −log10 of the molar value.
Reported pIC50, PAFR (Homo sapiens).
Measured Quantity: pIC50

Example cases with answers are listed next.
Molecule	Measured Quantity	Value
CCc1cc(-c2ccccc2OC)ccc1S(=O)(=O)N[C@H]1CCC[C@@H](n2cnnc2)C1 [Compound 2As]	pIC50	7.80
CCc1cccc(S(=O)(=O)N[C@@H]2C[C@H](n3cnnc3)CC(F)(F)C2)c1 [Compound 2Pk]	pIC50	6.43
Cc1nncn1[C@@H]1CCC[C@H](NS(=O)(=O)c2ccc(-c3noc(C4CC4)n3)c(F)c2)C1 [Compound 2Fh]	pIC50	8.00
O=S(=O)(N[C@H]1CCC[C@@H](n2cnnc2)C1)c1cc(-c2cccc3cnccc23)cc(C(F)(F)F)c1 [Compound 3Az]	pIC50	8.00
O=S(=O)(N[C@@H]1C[C@H](n2cnnc2)CC(F)(F)C1)c1ccc(-c2ccc(OCC(F)(F)F)nc2)c(F)c1 [2 Gf]	pIC50	8.36

a: CCc1cc(-c2ccc(OC)cc2)ccc1S(=O)(=O)N[C@H]1CCC[C@@H](n2cnnc2)C1 [Compound 2Ap]
b: CC(C)Oc1ccc(-c2ccc(S(=O)(=O)N[C@@H]3C[C@H](n4cnnc4)CC(F)(F)C3)cc2F)cc1 [Compound 2Gd]
Ask: Which has the higher pIC50, a or b ? # reply format: chosen label
Reply: b

----------
pIC50: −log10 of the molar value.
Reported pIC50, PAFR (Homo sapiens).
Measured Quantity: pIC50

Example cases with answers are listed next.
Compound	Target Entity	Measured Quantity	Value
CCCCOc1ccc(S(=O)(=O)N[C@H]2CCC[C@@H](n3cnnc3C)C2)cc1 [Compound 2Nw]	PAFR (Homo sapiens)	pIC50	8.55
Cc1cn2nc(-c3cc(C(F)(F)F)cc(S(=O)(=O)N[C@H]4CCC[C@@H](n5cnnc5)C4)c3)ccc2n1 [Compound 3Aai]	PAFR (Homo sapiens)	pIC50	8.39
O=S(=O)(N[C@H]1CCC[C@@H](n2cnnc2)C1)c1ccc(-c2ccc(OC(F)(F)F)cc2)cc1F [Compound 2Ig]	PAFR (Homo sapiens)	pIC50	7.80
O=S(=O)(N[C@H]1CCC[C@@H](n2cnnc2)C1)c1cc(-c2cccs2)cc(C(F)(F)F)c1 [Compound 3Aas]	PAFR (Homo sapiens)	pIC50	8.42
CCc1cc(-c2c(OC)cccc2OC(F)(F)F)ccc1S(=O)(=O)N[C@H]1CCC[C@@H](n2cnnc2)C1 [Compound 2Aab]	PAFR (Homo sapiens)	pIC50	7.27
CCc1cc(-c2ccc3c(c2)OCO3)ccc1S(=O)(=O)N[C@H]1CCC[C@@H](n2cnnc2)C1 [Compound 2Ax]	PAFR (Homo sapiens)	pIC50	7.42

P: Cc1nncn1[C@@H]1CCC[C@H](NS(=O)(=O)c2ccc(-c3ccc(OC(F)F)cc3)c(F)c2)C1 [Compound 2Fc]
Q: CCc1cc(-c2cncs2)ccc1S(=O)(=O)N[C@H]1CCC[C@@H](n2cnnc2)C1 [Compound 2Aax]
R: O=S(=O)(N[C@H]1CCC[C@@H](n2cnnc2)C1)c1cc(-c2ccn3ncnc3c2)cc(C(F)(F)F)c1 [Compound 3Aal]
S: CCCCOc1ccc(S(=O)(=O)N[C@@H]2C[C@H](n3cnnc3C)CC(F)(F)C2)cc1F [Compound 2Hj]
T: CCc1cc(-c2cnc3ccnn3c2)cc(S(=O)(=O)N[C@H]2CCC[C@@H](n3cnnc3)C2)c1 [Compound 3Bax]
Ask: Rank the 5 compounds: largest pIC50 first, smallest last. Record the ranking as a list of labels in the requested order.
Reply: P, S, T, R, Q
(P: 8.72, S: 8.44, T: 7.66, R: 7.38, Q: 6.69)

I: O=S(=O)(N[C@H]1CCC[C@@H](n2cnnc2)C1)c1cc(-c2cccnc2OCC(F)(F)F)cc(C(F)(F)F)c1 [Compound 3Aam]
II: CC(C)(C)c1cccc(S(=O)(=O)N[C@H]2CCC[C@@H](n3cnnc3)C2)c1 [Compound 2Mf]
III: CC(F)(F)c1nc(-c2ccc(S(=O)(=O)N[C@H]3CCC[C@@H](n4cnnc4)C3)c(C3CC3)c2)no1 [Compound 2Kc]
Ask: Arrange the 3 entries by pIC50 so the values rise. Record the ranking as a list of labels in the requested order.
Reply: II, III, I
(II: 6.80, III: 8.00, I: 8.49)

----------
Reported IC50, PAFR (Homo sapiens, UniProt P25105).
Measured Quantity: IC50 (nM)

A: CCc1cc(OCCCC(F)(F)F)ccc1S(=O)(=O)N[C@H]1CCC[C@@H](n2cnnc2)C1
B: CCc1cc(-c2ccccc2OC(F)(F)F)ccc1S(=O)(=O)N[C@H]1CCC[C@@H](n2cnnc2)C1
C: CCc1cc(-c2cscn2)ccc1S(=O)(=O)N[C@H]1CCC[C@@H](n2cnnc2)C1
Ask: Order the records, beginning with the lowest IC50 and ending with the highest. Record the ranking as a list of labels in the requested order.
Reply: A, B, C
(A: 2.7 nM, B: 44 nM, C: 69 nM)

----------
molecular target: PAFR (Homo sapiens); test: PAF Binding Assay (PAFR binding)
Sequence (P25105 whole entry): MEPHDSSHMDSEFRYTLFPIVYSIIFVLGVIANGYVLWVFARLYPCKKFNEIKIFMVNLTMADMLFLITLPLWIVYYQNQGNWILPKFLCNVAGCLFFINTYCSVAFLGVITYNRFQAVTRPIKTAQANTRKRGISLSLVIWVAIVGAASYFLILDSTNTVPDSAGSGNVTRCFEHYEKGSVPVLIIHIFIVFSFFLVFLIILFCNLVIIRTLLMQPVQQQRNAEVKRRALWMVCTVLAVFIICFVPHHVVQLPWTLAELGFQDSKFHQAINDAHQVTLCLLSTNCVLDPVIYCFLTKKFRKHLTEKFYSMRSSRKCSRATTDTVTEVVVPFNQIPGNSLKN
pIC50: −log10 of the molar value.
Measured Quantity: pIC50

Example cases with answers are listed next.
Chemical Structure	pIC50
CCc1cc(-c2ccc(OC)nc2)ccc1S(=O)(=O)N[C@H]1CCC[C@@H](n2cnnc2)C1	8.00
O=S(=O)(N[C@H]1CCC[C@@H](n2cnnc2)C1)c1ccc(Oc2ccccc2)cc1	7.29
O=S(=O)(N[C@H]1CCC[C@@H](n2cnnc2)C1)c1cc(F)c(-c2ccc(OC(F)(F)F)cc2)cc1F	7.92
CCc1cc(-c2cccc(F)c2)ccc1S(=O)(=O)N[C@H]1CCC[C@@H](n2cnnc2)C1	7.48
CCc1cc(-c2cc(OC)cc(OC)c2)ccc1S(=O)(=O)N[C@H]1CCC[C@@H](n2cnnc2)C1	7.72
CCc1cc(OCCCC(F)(F)F)ccc1S(=O)(=O)N[C@H]1CCC[C@@H](n2cnnc2C)C1	8.57
O=S(=O)(N[C@H]1CCC[C@@H](n2cnnc2)C1)c1c(C2CC2)cc(-c2noc(C3CC3)n2)cc1C1CC1	8.62

1: O=S(=O)(N[C@H]1CCC[C@@H](n2cnnc2)C1)c1cc(Br)cc(C(F)(F)F)c1
2: CCc1cc(-c2ccc(OC(F)(F)F)cc2)ccc1S(=O)(=O)N[C@H]1CCC[C@@H](n2cnnc2)C1
Ask: Looking at recorded values for pIC50, does 1 or 2 come in lower? # reply format: chosen label
Reply: 1
(1: 6.78, 2: 8.44)
